- Tested on: HCT116 (colorectal carcinoma, K Ras G13D) cells
- Assay remarks: Cell proliferation (Alamar Blue) assay, HCT116
- Format: cell-based, human
- Setup conditions: Homo sapiens, HCT-116, HCT116 cells
pIC50: −log10 of the molar value.
Measured pIC50, listed per entry.
Measured endpoint: pIC50

Cc1cnc(Nc2ccc(N3CCC(N4CCNCC4)CC3)cc2)nc1-n1ccc(C(=O)NC(CO)c2ccccc2)c1 (centres unmarked)    5.60 to 6.30
Cc1cnc(NC2CCOCC2)nc1-n1cnc(C(=O)NC(c2cccc(Cl)c2)C(C)O)c1 (single isomer, unassigned; isomer #2)    6.30 to 6.60
CC[C@@H](CO)Nc1cc(-n2ccc(C(=O)NC(CO)c3cccc(Cl)c3)c2)ccn1 (some centres unmarked)    < 5.60
Cc1cnc(NCC2CCCO2)nc1-n1ccc(C(=O)N[C@H](CO)c2cccc(Cl)c2)c1 (some centres unmarked)    < 5.60
COc1cc(F)ccc1Nc1ncc(C)c(-n2ccc(C(=O)NC(CO)c3cccc(Cl)c3)c2)n1 (centres unmarked)    5.60 to 6.30
Cc1cnc(NC2CCOC2)nc1-n1ccc(C(=O)NC(CO)c2ccccc2)c1 (centres unmarked)    < 5.60
Cc1cnc(Nc2ccc3c(c2)OCCO3)nc1-n1ccc(C(=O)NC(CO)c2cccc(Cl)c2)c1 (centres unmarked)    6.60 to 7.00
Cc1cnc(Nc2ccc(F)cc2Cl)nc1-n1cc(C(=O)N[C@H](CO)c2cccc(Cl)c2)cn1    < 5.60
